Target protein (sequence): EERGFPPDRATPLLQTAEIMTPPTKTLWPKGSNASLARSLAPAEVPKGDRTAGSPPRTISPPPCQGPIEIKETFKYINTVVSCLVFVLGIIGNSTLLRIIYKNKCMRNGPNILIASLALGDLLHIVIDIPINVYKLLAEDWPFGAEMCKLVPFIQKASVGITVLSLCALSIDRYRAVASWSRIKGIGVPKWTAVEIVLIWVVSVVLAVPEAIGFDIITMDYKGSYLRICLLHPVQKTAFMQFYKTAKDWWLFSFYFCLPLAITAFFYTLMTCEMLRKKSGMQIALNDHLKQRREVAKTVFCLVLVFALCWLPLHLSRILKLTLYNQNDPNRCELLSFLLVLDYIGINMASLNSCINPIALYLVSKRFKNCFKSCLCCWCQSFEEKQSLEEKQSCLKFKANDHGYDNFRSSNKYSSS
measurement-name: pIC50
Units for pIC50: none; it is -log10 of a concentration expressed in mol/L.

(Q) Query: pIC50; subject: CCOC(=O)CNC(=O)OC1(c2ccc(OC)cc2)OC(=O)C(c2ccc3c(c2)OCO3)=C1Cc1cc(OC)c(OC)c(OC)c1 (stereo not shown)
(A) 5.74

###

The following molecules each carry a recorded IC50 for endothelin receptor ETA (Homo sapiens).
The figure you give is taken to be in nM; do not add the unit.

(Q) Tell me reported IC50 for CCOC(=O)CNC(=O)OC1(c2ccc(OC)cc2)OC(=O)C(c2ccc3c(c2)OCO3)=C1Cc1cc(OC)c(OC)c(OC)c1 (centres unmarked) [Example 3] , tested with endothelin receptor ETA (Homo sapiens).
Sequence (P25101 21-427): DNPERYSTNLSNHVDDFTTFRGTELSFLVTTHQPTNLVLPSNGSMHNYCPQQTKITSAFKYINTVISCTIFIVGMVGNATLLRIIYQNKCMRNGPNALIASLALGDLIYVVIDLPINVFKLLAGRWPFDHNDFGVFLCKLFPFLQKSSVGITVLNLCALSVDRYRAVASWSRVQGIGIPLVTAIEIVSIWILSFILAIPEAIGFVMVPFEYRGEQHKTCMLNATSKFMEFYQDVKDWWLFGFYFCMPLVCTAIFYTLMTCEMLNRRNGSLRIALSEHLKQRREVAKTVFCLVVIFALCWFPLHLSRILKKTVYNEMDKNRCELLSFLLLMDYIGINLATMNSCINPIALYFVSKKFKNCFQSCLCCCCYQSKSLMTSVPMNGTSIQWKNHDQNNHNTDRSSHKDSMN
(A) 0.35

(Q) Tell me reported IC50 for COc1ccc(C2(OC(=O)N[C@@H](C)c3cccc4ccccc34)OC(=O)C(c3ccc4c(c3)OCO4)=C2Cc2cc(OC)c(OC)c(OC)c2)cc1 (some centres unmarked) [Example 2] , tested with endothelin receptor ETA (Homo sapiens).
(A) 1
